Listed here: items and their measured PBM binding z-score.
# System: VDR homodimer (NR concentration 270 nM)
# testDetails: PBM binding z-score (relative to random genomic background probes); higher = stronger binding; sequences stand for … in GC…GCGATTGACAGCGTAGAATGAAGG
Quick one: just the number, no unit, thanks!

Below, each entry is followed by its recorded PBM binding z-score result.
>>> resultvalue("CCTCGGAGGACAGAAGGACAGAGCTGTCCGCTTT")
-0.357
>>> resultvalue("TCATATAGGTAATACAGGTGAATGTCGGCATCTA")
-0.00173

Task item: Which PBM binding z-score reading was recorded for the sequence TCTTGTAGATCAATAGAGGTTAAGAGAGTGCGCT ?
Reply: 0.473

Task item: Now consider GATACAGGTTCAGCTAGAGGCCAGAGTATGGAAA and answer again.
Reply: 2.29

----------
Listed here: items and their measured PBM binding z-score.
# Test system: LXRa homodimer (NR concentration 270 nM)
# testDetails: PBM binding z-score (relative to random genomic background probes); higher = stronger binding; sequences stand for … in GC…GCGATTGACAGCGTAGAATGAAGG
Quick one: just the number, no unit, thanks!

Below, each entry is followed by its recorded PBM binding z-score result.
>>> resultvalue("AGTCAAAGTTCAGGACGAGGTATCGTAAAGCACG")
1.22
>>> resultvalue("CGTCCATGGTCAAAGGTCAGTGAAGAGATGACGG")
0.607
>>> resultvalue("ATCTCTAGGTACCAAGTTCAGTGAAAGAGAGGAC")
0.346
>>> resultvalue("ACATGTAGGTTAAGGGTCATTCAGGTTGGTTCGC")
3.12
>>> resultvalue("CCTACTGGGCCACGAAAGGTCGTTGATTCAGTGA")
0.373

Task item: Which PBM binding z-score reading was recorded for the sequence AGAATGAGCTTAAGATCAGGGAAACAGAATACAT ?
Reply: -0.372

Task item: Now consider ATCGAATGGTCGACGAGGTGAGTATACACCGTTT and answer again.
Reply: -0.816

Task item: Now consider CGTCCAAGGTCAAAGCTCAGTGAAGAGATGACGG and answer again.
Reply: 0.938

Task item: Now consider AGAATGAGGTTATTGAGATCAGGGAATTGCGGTC and answer again.
Reply: 0.125

Task item: Now consider AGAATGAGGTTATTAAGATCATGGAATTGCGGTC and answer again.
Reply: 0.0389

Task item: Now consider TCTCGGACGACACGAAAGGTCAGAGCTCGACATC and answer again.
Reply: 2.39

Task item: Now consider ACAGACAGGTGATTGAAGGTAACTCAGCTGGACG and answer again.
Reply: -0.444

Task item: Now consider AGAACGAGGGCAATGAGTTGCTAGCACGGGTGGC and answer again.
Reply: -0.614

Task item: Now consider GCGACTGGGGCATCAGCAGGTTACCCTAACTTAA and answer again.
Reply: -0.26

----------
# System: FXR:RXRa (NR concentration 270 nM, RXRa partner concentration 90 nM)
# testDetails: PBM binding z-score (relative to random genomic background probes); higher = stronger binding; sequences stand for … in GC…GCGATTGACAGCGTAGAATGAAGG
Listed here: items and their measured PBM binding z-score.
Quick one: just the number, no unit, thanks!

>>> resultvalue("CCTTCCGGGTCACGAGGTTATAGCACGACGAGCG")
5.95

Task item: Which PBM binding z-score reading was recorded for the sequence CGTCAAAGTTCAACTAAGGTAACGTAAAGCACGC ?
Reply: 7.09

Task item: Now consider CCTACTGGGCCTTTCAGAGGTCATTGATCATATG and answer again.
Reply: 2.73

Task item: Now consider TCATATAGGTAAAAGCTAGGTGAAAGTCCGATCT and answer again.
Reply: 0.543

Task item: Now consider CTTCCAAGGTCATAGGAGGTCAGTGAAGACAGAT and answer again.
Reply: 7.67

Task item: Now consider CCGAGTAGGTTATCGGGCATTCAGGCAACGGTGA and answer again.
Reply: 0.12

Task item: Now consider AGTCAAAGTTCAGGACAAGGTAACGTAAAGCACG and answer again.
Reply: 4.6
